- Tgt: Adenylate cyclase type 9 (Homo sapiens)
- Sequence (O60503 whole entry): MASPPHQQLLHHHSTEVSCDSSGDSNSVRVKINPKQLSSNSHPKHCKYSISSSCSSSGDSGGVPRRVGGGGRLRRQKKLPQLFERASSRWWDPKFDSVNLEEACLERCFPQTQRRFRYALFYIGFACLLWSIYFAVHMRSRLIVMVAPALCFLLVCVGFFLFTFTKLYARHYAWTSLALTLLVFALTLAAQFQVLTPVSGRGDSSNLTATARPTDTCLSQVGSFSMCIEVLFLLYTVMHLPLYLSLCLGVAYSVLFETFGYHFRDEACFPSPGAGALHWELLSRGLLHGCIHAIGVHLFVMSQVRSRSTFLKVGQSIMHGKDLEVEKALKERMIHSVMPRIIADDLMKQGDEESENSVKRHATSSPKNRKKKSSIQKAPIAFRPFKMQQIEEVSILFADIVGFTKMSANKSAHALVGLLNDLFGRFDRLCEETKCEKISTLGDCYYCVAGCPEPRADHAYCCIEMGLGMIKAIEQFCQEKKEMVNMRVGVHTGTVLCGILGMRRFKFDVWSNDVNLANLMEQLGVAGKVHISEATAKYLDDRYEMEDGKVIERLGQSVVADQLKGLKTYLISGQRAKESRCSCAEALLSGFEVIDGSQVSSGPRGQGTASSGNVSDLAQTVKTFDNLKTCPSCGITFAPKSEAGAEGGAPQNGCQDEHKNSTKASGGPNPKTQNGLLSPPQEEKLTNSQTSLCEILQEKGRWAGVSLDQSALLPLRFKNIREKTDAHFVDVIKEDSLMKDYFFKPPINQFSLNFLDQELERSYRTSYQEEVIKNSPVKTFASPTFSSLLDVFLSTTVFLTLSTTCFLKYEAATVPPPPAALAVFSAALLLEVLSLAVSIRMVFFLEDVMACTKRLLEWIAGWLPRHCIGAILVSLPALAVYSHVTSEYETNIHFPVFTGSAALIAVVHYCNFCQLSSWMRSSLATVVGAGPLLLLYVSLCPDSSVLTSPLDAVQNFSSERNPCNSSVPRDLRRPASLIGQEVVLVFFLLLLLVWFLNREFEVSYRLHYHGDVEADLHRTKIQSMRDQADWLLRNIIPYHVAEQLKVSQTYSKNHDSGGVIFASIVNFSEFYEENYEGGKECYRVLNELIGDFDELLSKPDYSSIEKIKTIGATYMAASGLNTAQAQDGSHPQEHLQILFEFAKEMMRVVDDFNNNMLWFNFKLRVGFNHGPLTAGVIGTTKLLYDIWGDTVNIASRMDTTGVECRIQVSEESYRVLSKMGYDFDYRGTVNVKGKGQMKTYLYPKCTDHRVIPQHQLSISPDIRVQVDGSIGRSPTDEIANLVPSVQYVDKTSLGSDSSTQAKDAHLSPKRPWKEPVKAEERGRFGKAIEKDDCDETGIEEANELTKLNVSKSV
Measured endpoint: Ki

For record Cc1cc([C@@H]2CCCN2C)on1 the listed Ki is > 10 µM

###

- Tgt: UniProt:P18762
- Sequence (P18762 whole entry): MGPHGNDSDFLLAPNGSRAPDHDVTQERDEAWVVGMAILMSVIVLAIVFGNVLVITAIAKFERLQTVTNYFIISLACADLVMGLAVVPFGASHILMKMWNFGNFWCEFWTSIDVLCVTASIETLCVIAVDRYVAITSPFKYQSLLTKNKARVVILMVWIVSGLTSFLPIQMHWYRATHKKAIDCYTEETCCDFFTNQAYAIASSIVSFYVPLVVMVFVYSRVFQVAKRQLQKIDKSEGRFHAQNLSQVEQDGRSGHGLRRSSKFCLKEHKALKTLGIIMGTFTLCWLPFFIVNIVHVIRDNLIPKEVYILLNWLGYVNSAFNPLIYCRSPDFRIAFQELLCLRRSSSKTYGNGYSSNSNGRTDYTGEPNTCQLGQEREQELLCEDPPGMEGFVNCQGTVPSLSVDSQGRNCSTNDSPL
pKi: −log10 of the molar value.
Measured endpoint: pKi

Query Cc1cc([C@@H]2CCCN2C)on1 on UniProt:P18762; pKi returned: < 5.00

###

- Tgt: 5-hydroxytryptamine receptor 1A/1B/1D/2C (Homo sapiens, UniProt P08908+P28221+P28222+P28335)
- Sequence (P08908 whole entry): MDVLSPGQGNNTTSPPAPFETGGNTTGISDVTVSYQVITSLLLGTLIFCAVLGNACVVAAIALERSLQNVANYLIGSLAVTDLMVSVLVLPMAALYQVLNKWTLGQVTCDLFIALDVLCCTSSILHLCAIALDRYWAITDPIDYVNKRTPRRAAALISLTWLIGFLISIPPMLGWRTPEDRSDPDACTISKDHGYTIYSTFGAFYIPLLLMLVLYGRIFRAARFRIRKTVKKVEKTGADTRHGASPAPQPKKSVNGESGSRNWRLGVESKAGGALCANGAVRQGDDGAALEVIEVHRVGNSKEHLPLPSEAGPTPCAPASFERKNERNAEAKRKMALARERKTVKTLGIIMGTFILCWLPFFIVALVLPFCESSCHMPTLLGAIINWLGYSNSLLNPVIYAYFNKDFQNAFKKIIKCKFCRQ
- Sequence (P28222 whole entry): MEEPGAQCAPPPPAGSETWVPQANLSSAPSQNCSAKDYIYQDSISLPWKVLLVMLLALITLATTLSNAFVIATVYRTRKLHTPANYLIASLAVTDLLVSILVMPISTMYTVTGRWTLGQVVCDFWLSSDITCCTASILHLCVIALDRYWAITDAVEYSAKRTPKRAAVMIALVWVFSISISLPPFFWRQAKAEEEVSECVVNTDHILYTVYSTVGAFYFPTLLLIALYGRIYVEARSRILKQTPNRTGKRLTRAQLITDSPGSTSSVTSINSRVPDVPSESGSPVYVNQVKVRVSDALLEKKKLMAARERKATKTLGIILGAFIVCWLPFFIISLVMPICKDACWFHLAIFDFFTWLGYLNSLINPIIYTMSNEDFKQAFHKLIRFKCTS
- Sequence (P28221 whole entry): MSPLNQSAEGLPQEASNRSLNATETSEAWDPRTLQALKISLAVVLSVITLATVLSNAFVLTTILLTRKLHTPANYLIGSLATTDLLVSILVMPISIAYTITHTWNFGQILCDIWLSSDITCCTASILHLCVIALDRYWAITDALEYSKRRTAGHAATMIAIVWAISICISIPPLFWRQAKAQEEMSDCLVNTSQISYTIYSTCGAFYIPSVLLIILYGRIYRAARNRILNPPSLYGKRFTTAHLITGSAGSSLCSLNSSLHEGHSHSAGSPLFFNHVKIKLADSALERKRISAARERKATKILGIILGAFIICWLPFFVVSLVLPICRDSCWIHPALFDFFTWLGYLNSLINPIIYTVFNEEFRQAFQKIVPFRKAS
- Sequence (P28335 whole entry): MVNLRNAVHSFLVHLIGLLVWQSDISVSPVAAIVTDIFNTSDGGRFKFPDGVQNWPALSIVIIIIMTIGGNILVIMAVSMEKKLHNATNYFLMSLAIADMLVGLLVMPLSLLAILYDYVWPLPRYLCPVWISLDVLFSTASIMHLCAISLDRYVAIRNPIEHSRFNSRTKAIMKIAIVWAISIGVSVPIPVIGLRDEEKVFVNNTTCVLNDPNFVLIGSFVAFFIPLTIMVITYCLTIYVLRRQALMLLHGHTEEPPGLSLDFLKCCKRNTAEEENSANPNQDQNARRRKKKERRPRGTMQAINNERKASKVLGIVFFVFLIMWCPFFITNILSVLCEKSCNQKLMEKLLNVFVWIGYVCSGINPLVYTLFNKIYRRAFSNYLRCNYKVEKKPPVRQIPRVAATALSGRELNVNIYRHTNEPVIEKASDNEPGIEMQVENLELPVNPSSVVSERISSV
Measured endpoint: Ki

For record Cc1cc([C@@H]2CCCN2C)on1 [ABT-418] the listed Ki is > 10 µM

###

- Tgt: UniProt Q60533
- Sequence (Q60533 whole entry): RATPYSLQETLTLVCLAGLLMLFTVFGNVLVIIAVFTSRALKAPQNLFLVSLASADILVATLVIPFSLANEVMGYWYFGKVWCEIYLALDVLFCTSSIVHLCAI
Measured endpoint: Ki

For record Cc1cc([C@@H]2CCCN2C)on1 the listed Ki is > 10 µM

Where do these numbers come from? They come from BindingDB's records for PubMed 7518514.
